Tested on: cardiac fibroblast RAT-iCell-C002
MEASUREMENT DESCRIPTION: Anti-fibrosis activity test: inhibition of proliferation of cardiac fibroblast RAT-iCell-C002 (CCK-8)
Type: cell-based
CONDITION SET: cardiac fibroblast RAT-iCell-C002, CCK-8, 48 hours
PROPERTY LABEL: IC50

MOLECULE: O=C1c2c(nc3c(C(F)(F)F)c(N4CCNCC4)ccc3c2OCc2ccc(Cl)cc2)-c2cccn21 [Compound 487b]
IC50: 0.05 to 5 mM

# query: IC50 of entry O=C1c2c(n(Cc3ccc(Cl)cc3)c3c(C(F)(F)F)c(N4CCNCC4)ccc3c2=O)-c2cccn21 [Compound 487a]
< 0.05 mM
